Source listed as patent US20090311237A1.

Assay: Pharmacokinetics of ZA in pig serum after IV or SC infusion with or without rHuPH20 (LC-MS-MS, non-compartmental analysis)
Type: in vivo
Condition: female, Yorkshire, pig, serum, iv, […], pig; ZA […] 20-min IV infusion; individual pigs 57, 61, 67; read-out: Vss
Readout label: Vd (L/kg)
// units = L/kg; emit number, no label

Lookup result for "O=P(O)(O)C(O)(Cn1ccnc1)P(=O)(O)O" ; measured Vd: 0.104

---

Assay: Phase 1 Stage 1 clinical pharmacokinetics of SC ZA co-administered with rHuPH20
Assay type: in vivo, human
Condition: human, serum, sc, serum; ZA 0.25 mg SC infusion + 24000 Units rHuPH20; 2 h post infusion; n=3; read-out: Median Conc.
Readout label: concentration at 2 h (ng/mL)
Output spec: scalar in ng/mL, unitless text.

Notebook: "O=P(O)(O)C(O)(Cn1ccnc1)P(=O)(O)O" , concentration at 2 h read as 5.42

---

Assay: Phase 1 Stage 1 clinical pharmacokinetics of SC ZA co-administered with rHuPH20
Format: in vivo, human
Condition: human, serum, sc, serum; ZA 5 mg SC infusion + 24000 Units rHuPH20; 48 h post infusion; individual subjects; read-out: Zoledronic Acid Concentration
Readout label: concentration at 48 h (ng/mL)
Hi! Could you send only the number? It should be in ng/mL, unit omitted.

Lab book: concentration at 48 h of "O=P(O)(O)C(O)(Cn1ccnc1)P(=O)(O)O" noted as 1.28

---

Assay: Phase 1 Stage 1 clinical pharmacokinetics of SC ZA co-administered with rHuPH20
Assay type: in vivo, human
Condition: human, serum, sc, ZA 2 mg SC + 24000 U rHuPH20; median, n=3; read-out: AUC (0-∞)
Description: A pharmacokinetic study of zoledronic acid (ZA) co-administered with rHuPH20 in human subjects was conducted. […] Serum concentration of ZA was determined using a qualified LC-MS-MS assay after derivatization with diazomethane (Zhu, L S et al. (2006) Rapid Commun. […] The assay range was from 2.0 to 400 ng/mL with a lower limit of quantitation (LLOQ) at 2.0 ng/mL. […] Summary statistics (mean, standard deviation, and median) were calculated using JMP or Microsoft Excel.
Readout label: AUC(0-inf) (ng·h/mL)
Numeric only. Scale: ng·h/mL

The recorded AUC(0-inf) for "O=P(O)(O)C(O)(Cn1ccnc1)P(=O)(O)O" is 246

---

Assay: Phase 1 Stage 1 clinical pharmacokinetics of SC ZA co-administered with rHuPH20
Format: in vivo, human
Condition: human, serum, sc, AUC (0-12h), ZA 1 mg SC + 24000 U rHuPH20; individual subjects
Readout label: AUC(0-t) (ng·h/mL)
Write the number in ng·h/mL without appending the unit.

The reported AUC(0-t) of the compound "O=P(O)(O)C(O)(Cn1ccnc1)P(=O)(O)O" was 103

---

Assay: Phase 1 Stage 1 clinical pharmacokinetics of SC ZA co-administered with rHuPH20
Type: in vivo, human
Condition: human, serum, sc, […], AUC (0-24 h), Subj 8; ZA […] SC; inf 0.531 hr; PH20 22944 U
Readout label: AUC(0-t) (ng·h/mL)
Numeric only. Scale: ng·h/mL

AUC(0-t) recorded for this compound, "O=P(O)(O)C(O)(Cn1ccnc1)P(=O)(O)O" , is 29.4

---

Assay: Phase 1 Stage 1 clinical pharmacokinetics of SC ZA co-administered with rHuPH20
Assay type: in vivo, human
Condition: human, serum, sc, ZA 5 mg SC + 24000 U rHuPH20; mean, n=3
Readout label: CL/F (mL/min/kg)
Lab book: enter the figure in mL/min/kg, no units written.

Input O=P(O)(O)C(O)(Cn1ccnc1)P(=O)(O)O [ZA] . Output CL/F: 1.85

---

Assay: Phase 1 Stage 1 clinical pharmacokinetics of SC ZA co-administered with rHuPH20
Type: in vivo, human
Condition: human, serum, sc, serum; ZA 0.25 mg SC infusion + 24000 Units rHuPH20; 0 h post infusion; individual subjects; read-out: Zoledronic Acid Concentration
Procedure: A pharmacokinetic study of zoledronic acid (ZA) co-administered with rHuPH20 in human subjects was conducted. […] Serum concentration of ZA was determined using a qualified LC-MS-MS assay after derivatization with diazomethane (Zhu, L S et al. (2006) Rapid Commun. […] The assay range was from 2.0 to 400 ng/mL with a lower limit of quantitation (LLOQ) at 2.0 ng/mL. […] Summary statistics (mean, standard deviation, and median) were calculated using JMP or Microsoft Excel.
Readout label: concentration at 0 h (ng/mL)
Reply with just the number (in ng/mL).

The reported concentration at 0 h of the molecule O=P(O)(O)C(O)(Cn1ccnc1)P(=O)(O)O [ZA] was 4.5

---

Assay: Phase 1 Stage 1 clinical pharmacokinetics of SC ZA co-administered with rHuPH20
Format: in vivo, human
Condition: human, serum, sc, serum; ZA 5 mg SC infusion + 24000 Units rHuPH20; 8 h post infusion; n=3; read-out: Mean Conc.
Readout label: concentration at 8 h (ng/mL)
Quick note: give the figure in ng/mL, leave out the unit.

Field concentration at 8 h (entry "O=P(O)(O)C(O)(Cn1ccnc1)P(=O)(O)O" ) reads 11

---

Assay: Pharmacokinetics of ZA in pig serum after IV or SC infusion with or without rHuPH20 (LC-MS-MS, non-compartmental analysis)
Assay type: in vivo
Condition: female, Yorkshire, pig, serum, subcutaneous, […], pig 58, Study Group 3, SC, ZA […], rHuPH20 10000 U/mL, 50 mL over 8 min, time 2 h; read-out: Zoledronic Acid Serum Concentration
Readout label: concentration at 2 h (µg/mL)
Only the number, expressed in µg/mL, is required.

The recorded concentration at 2 h for entry O=P(O)(O)C(O)(Cn1ccnc1)P(=O)(O)O [ZA] equals 0.0401

---

Assay: Phase 1 Stage 1 clinical pharmacokinetics of SC ZA co-administered with rHuPH20
Type: in vivo, human
Condition: human, serum, sc, serum; ZA 5 mg SC infusion + 24000 Units rHuPH20; 6 h post infusion; n=3; read-out: Median Conc.
Readout label: concentration at 6 h (ng/mL)
Answer with a number only, understood to be in ng/mL.

Value of concentration at 6 h reported for the compound O=P(O)(O)C(O)(Cn1ccnc1)P(=O)(O)O [ZA] is 22.3

---

Assay: Phase 1 Stage 1 clinical pharmacokinetics of SC ZA co-administered with rHuPH20
Type: in vivo, human
Condition: human, serum, sc, ZA 1 mg SC + 24000 U rHuPH20; mean, n=3; read-out: Vss/F
Readout label: Vd/F (L/kg)
Note: unit L/kg is implicit; provide only the numeric part.

The molecule identified as "O=P(O)(O)C(O)(Cn1ccnc1)P(=O)(O)O" registered its Vd/F at 0.852

---

Assay: Phase 1 Stage 1 clinical pharmacokinetics of SC ZA co-administered with rHuPH20
Type: in vivo, human
Condition: human, serum, sc, ZA 0.25 mg SC + 24000 U rHuPH20; mean, n=3; read-out: MRT
Readout label: MRT
Note: a bare number is incomplete; add the unit.

For reference, reported MRT for "O=P(O)(O)C(O)(Cn1ccnc1)P(=O)(O)O" stands at 3.5 h

---

Assay: Phase 1 Stage 1 clinical pharmacokinetics of SC ZA co-administered with rHuPH20
Assay type: in vivo, human
Condition: human, serum, sc, serum; ZA 0.5 mg SC infusion + 24000 Units rHuPH20; 6 h post infusion; individual subjects; read-out: Zoledronic Acid Concentration
Readout label: concentration at 6 h
The number alone won't do; follow it with the unit.

Notebook: "O=P(O)(O)C(O)(Cn1ccnc1)P(=O)(O)O" , concentration at 6 h read as 2.5 ng/mL

---

Assay: Phase 1 Stage 1 clinical pharmacokinetics of SC ZA co-administered with rHuPH20
Format: in vivo, human
Condition: human, serum, sc, ZA 5 mg SC + 24000 U rHuPH20; median, n=3
Readout label: Cmax (µg/mL)
Please give a number only; it is taken to be in µg/mL.

So for O=P(O)(O)C(O)(Cn1ccnc1)P(=O)(O)O [ZA] , the logged Cmax turned out to be 0.131

---

Assay: Pharmacokinetics of ZA in pig serum after IV or SC infusion with or without rHuPH20 (LC-MS-MS, non-compartmental analysis)
Assay type: in vivo
Condition: female, Yorkshire, pig, serum, subcutaneous, pig 68, Study Group 3, SC, ZA […], rHuPH20 10000 U/mL, 10 mL over 1.6 min, time […]; read-out: Zoledronic Acid Serum Concentration
Readout label: concentration at […] (µg/mL)
Respond with the bare value in µg/mL.

Just so you know, measured concentration at […] for O=P(O)(O)C(O)(Cn1ccnc1)P(=O)(O)O [ZA] came out at 0.0505

---

Assay: Phase 1 Stage 1 clinical pharmacokinetics of SC ZA co-administered with rHuPH20
Type: in vivo, human
Condition: human, serum, sc, serum; ZA 5 mg SC infusion + 24000 Units rHuPH20; 0 h post infusion; n=3; read-out: Mean Conc.
Readout label: concentration at 0 h (ng/mL)
Numeric answer only, unit ng/mL assumed.

Sure, the documented concentration at 0 h for "O=P(O)(O)C(O)(Cn1ccnc1)P(=O)(O)O" is 88.6
